Where these numbers come from: patent US8178535B2

- Target: B1R receptor of rats (rB1R) (Rattus norvegicus)
- Construct: host or cells: CHO K1 cells
- Sequence (P97583 whole entry): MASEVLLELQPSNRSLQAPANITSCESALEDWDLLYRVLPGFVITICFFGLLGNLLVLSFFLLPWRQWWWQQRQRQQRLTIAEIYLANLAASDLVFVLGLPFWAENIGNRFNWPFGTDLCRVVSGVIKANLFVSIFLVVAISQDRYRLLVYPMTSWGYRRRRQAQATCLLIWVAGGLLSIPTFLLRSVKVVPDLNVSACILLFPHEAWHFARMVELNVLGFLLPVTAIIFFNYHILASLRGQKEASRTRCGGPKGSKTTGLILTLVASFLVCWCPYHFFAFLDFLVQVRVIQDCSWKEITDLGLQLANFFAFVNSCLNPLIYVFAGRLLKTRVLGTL
- Method: FLIPR Ca2+ assay (Fluo-4) on CHO K1 cells stably transfected with the B1R gene of rats
- Type: cell-based
- Particulars: CHO-K1; test substance 10 μM; agonist Des-Arg9-bradykinin 100 nM; % inhibition compared to the maximum achievable inhibition
Reported Property: inhibition at 10 µM (%)

Compound	Assay Value
CCC1c2cccn2CCN1C(=O)CCC1CCCCN1S(=O)(=O)c1c(C)cc(OC)cc1C (stereo not shown) [(85)]	98
O=C(CC1CCCCN1S(=O)(=O)c1cccc(C(F)(F)F)c1)N1CCn2c(CCc3cccnc3)ccc2C1 (stereo not shown) [(98)]	90
COc1cc(C)c(S(=O)(=O)N2CCCCC2COCC(=O)N2CCn3cccc3C2C)c(C)c1 (stereo not shown) [(20)]	99
Cc1cc(C)c(S(=O)(=O)N2CCCCC2COCC(=O)N2CCn3cccc3C2c2cccnc2)c(C)c1 (stereo not shown) [(35)]	97
